Sourced from patent US10828315B2

# Test system: human urinary bladder cancer cell line SW780
# PROTOCOL_DETAILS: Cytotoxicity assay (CellTiter-Glo, 72 h), SW780
# Type: cell-based
# EXPERIMENTAL_CONDITIONS: SW780, 72 h, read-out: Cytotoxicity (IC50, nM) SW-780
MEASUREMENT_TYPE: IC50 (nM)

- MOLECULE: "CCNC(=O)c1nnc(-c2cc(C(C)C)c(O)cc2O)n1-c1ccc2c(c1)CN(Cc1cc(OC)c(OC(=O)Nc3cccc4c3CN(C3CCC(=O)NC3=O)C4=O)c(OC)c1)C2 (centres unmarked) [SDC-TRAP-0196]"
  MEASUREMENT_TYPE: "IC50"
  MEASUREMENT_UNIT: "nM"
  REPORTED_RELATION: ">"
  MEASUREMENT: 10000
- MOLECULE: "CCc1c2c(nc3ccc(OC(=O)N4CCC[C@H]4C(=O)N4CCN(c5ccc(-n6c(O)nnc6-c6cc(C(C)C)c(O)cc6O)cc5)CC4)cc13)-c1cc3c(c(=O)n1C2)COC(=O)[C@]3(O)CC [SDC-TRAP-0204]"
  MEASUREMENT_TYPE: "IC50"
  MEASUREMENT_UNIT: "nM"
  REPORTED_RELATION: ">"
  MEASUREMENT: 10000
- MOLECULE: "CCc1c2c(nc3ccc(OC(=O)N4CCN(C(=O)Cn5ccc6cc(-n7c(O)nnc7-c7cc(C(C)C)c(O)cc7O)ccc65)CC4C)cc13)-c1cc3c(c(=O)n1C2)COC(=O)C3(O)CC (centres unmarked) [SDC-TRAP-0201]"
  MEASUREMENT_TYPE: "IC50"
  MEASUREMENT_UNIT: "nM"
  REPORTED_RELATION: "="
  MEASUREMENT: 1100
- MOLECULE: "CC(C)c1cc(-c2nnc(O)n2-c2ccc(CN3CCN(C(=O)CCCc4nc5cc(N(CCCl)CCCl)ccc5n4C)CC3)cc2)c(O)cc1O [SDC-TRAP-0069]"
  MEASUREMENT_TYPE: "IC50"
  MEASUREMENT_UNIT: "nM"
  REPORTED_RELATION: "="
  MEASUREMENT: 1340
- MOLECULE: "CCc1c2c(nc3ccc(OC(=O)N4CCN(Cc5ccc(-n6c(O)nnc6-c6cc(C(C)C)c(O)cc6O)cc5)CC4)cc13)-c1cc3c(c(=O)n1C2)COC(=O)C3(O)CC (centres unmarked) [SDC-TRAP-0046]"
  MEASUREMENT_TYPE: "IC50"
  MEASUREMENT_UNIT: "nM"
  REPORTED_RELATION: "="
  MEASUREMENT: 489

====

# PROTOCOL_DETAILS: Retention of docetaxel SDC-TRAPs in plasma and tumor (Example 53)
# Format: in vivo, Female SCID Mouse (H1975)
# EXPERIMENTAL_CONDITIONS: female, SCID, mouse, in vivo; of analyte at 6 h; dosed SDC-TRAP-0423 7 mg/10 mL/kg IV, DRD; Table 5, second optimized procedure; read-out: Plasma Conc.

- COMPOUND: "CCNC(=O)c1nnc(-c2cc(C(C)C)c(O)cc2O)n1-c1ccc(N(C)C2CCN(C(=O)CCC(=O)O[C@H](C(=O)O[C@@H]3C[C@]4(O)[C@H](OC(=O)c5ccccc5)[C@H]5C6(OC(C)=O)COC6C[C@@H](O)[C@]5(C)C(=O)[C@@H](O)C(=C3C)C4(C)C)[C@H](NC(=O)OC(C)(C)C)c3ccccc3)CC2)nc1 (stereo partly shown) [SDC-TRAP-0423]"
  concentration at 6 h: "2210 nM"
